Measured Stability in Powder Concentrate (content by LCMSMS) accompanies every entry in the list below.
Type: physicochemical
MEASUREMENT SETUP: stored at room temperature (21-25° C.), day 5
QUANTITY KIND: Stability in Powder Concentrate (content by LCMSMS) (mg/g powder)

{"COMPOUND": "CCCCCc1cc2c(c(O)c1C(=O)O)[C@@H]1C=C(C)CC[C@H]1C(C)(C)O2 [D9 THCA, delta-9-tetrahydrocannabinolic acid]", "UNIT OF MEASURE": "mg/g powder", "VALUE": 0.146}
{"COMPOUND": "CCCc1cc(O)c2c(c1)OC(C)(C)[C@@H]1CCC(C)=C[C@@H]21 [THCV, delta-9-tetrahydrocannabivarin]", "UNIT OF MEASURE": "mg/g powder", "VALUE": 0.676}
{"COMPOUND": "Cc1c(C)c2c(c(C)c1OC(=O)CCC(=O)O)CC[C@@](C)(CCC[C@H](C)CCC[C@H](C)CCCC(C)C)O2 [α-Tocopheryl succinate]", "UNIT OF MEASURE": "mg/g powder", "VALUE": 1.83}
{"COMPOUND": "CC(=O)Oc1c(C)c(C)c2c(c1C)CCC(C)(CCC[C@H](C)CCC[C@H](C)CCCC(C)C)O2 (stereo partly drawn) [α-Tocopheryl acetate]", "UNIT OF MEASURE": "mg/g powder", "VALUE": 2.24}
{"COMPOUND": "CCCCCc1cc(O)c2c(c1)OC(C)(C)[C@@H]1CCC(C)=C[C@@H]21 [D9 THC, delta-9-tetrahydrocannabinol, reference compound]", "UNIT OF MEASURE": "mg/g powder", "VALUE": 2.66}
{"COMPOUND": "C=C(C)[C@@H]1CCC(C)=C[C@H]1c1c(O)cc(CCC)cc1O [CBDV, cannabidivarin]", "UNIT OF MEASURE": "mg/g powder", "VALUE": 0.050}
{"COMPOUND": "C=C(C)[C@@H]1CCC(C)=C[C@H]1c1c(O)cc(CCCCC)cc1O [CBD, cannabidiol, reference compound]", "UNIT OF MEASURE": "mg/g powder", "VALUE": 5.84}
{"COMPOUND": "CCCCCc1cc(O)c2c(c1)OC1(C)CCC3C1C2C3(C)C (stereo not shown) [CBL, cannabicyclol]", "UNIT OF MEASURE": "mg/g powder", "VALUE": 0.052}
{"COMPOUND": "CCCCCc1cc(O)c(C/C=C(\\C)CCC=C(C)C)c(O)c1 [CBG, cannabigerol]", "UNIT OF MEASURE": "mg/g powder", "VALUE": 1.11}
{"COMPOUND": "Cc1c(C)c2c(c(C)c1O)CC[C@@](C)(CCC[C@H](C)CCC[C@H](C)CCCC(C)C)O2 [α-Tocopherol]", "UNIT OF MEASURE": "mg/g powder", "VALUE": 4.99}
{"COMPOUND": "CCCCCc1cc(O)c2c(c1)OC(C)(CCC=C(C)C)C=C2 (stereo not shown) [CBC, cannabichromene]", "UNIT OF MEASURE": "mg/g powder", "VALUE": 0.070}
{"COMPOUND": "CCCCCc1cc(O)c2c(c1)OC(C)(C)c1ccc(C)cc1-2 [CBN, cannabinol]", "UNIT OF MEASURE": "mg/g powder", "VALUE": 0.491}
{"COMPOUND": "C=C(C)[C@@H]1CCC(C)=C[C@H]1c1c(O)cc(CCCCC)c(C(=O)O)c1O [CBDA, cannabidiolic acid]", "UNIT OF MEASURE": "mg/g powder", "VALUE": 0.414}
